# STUDY SYSTEM: human Nav1.8 (Homo sapiens)
# Construct: expressed in transfected cells; host or cells: HEK293 (HEK293-Nav1.8)
# Sequence (Q9Y5Y9 whole entry): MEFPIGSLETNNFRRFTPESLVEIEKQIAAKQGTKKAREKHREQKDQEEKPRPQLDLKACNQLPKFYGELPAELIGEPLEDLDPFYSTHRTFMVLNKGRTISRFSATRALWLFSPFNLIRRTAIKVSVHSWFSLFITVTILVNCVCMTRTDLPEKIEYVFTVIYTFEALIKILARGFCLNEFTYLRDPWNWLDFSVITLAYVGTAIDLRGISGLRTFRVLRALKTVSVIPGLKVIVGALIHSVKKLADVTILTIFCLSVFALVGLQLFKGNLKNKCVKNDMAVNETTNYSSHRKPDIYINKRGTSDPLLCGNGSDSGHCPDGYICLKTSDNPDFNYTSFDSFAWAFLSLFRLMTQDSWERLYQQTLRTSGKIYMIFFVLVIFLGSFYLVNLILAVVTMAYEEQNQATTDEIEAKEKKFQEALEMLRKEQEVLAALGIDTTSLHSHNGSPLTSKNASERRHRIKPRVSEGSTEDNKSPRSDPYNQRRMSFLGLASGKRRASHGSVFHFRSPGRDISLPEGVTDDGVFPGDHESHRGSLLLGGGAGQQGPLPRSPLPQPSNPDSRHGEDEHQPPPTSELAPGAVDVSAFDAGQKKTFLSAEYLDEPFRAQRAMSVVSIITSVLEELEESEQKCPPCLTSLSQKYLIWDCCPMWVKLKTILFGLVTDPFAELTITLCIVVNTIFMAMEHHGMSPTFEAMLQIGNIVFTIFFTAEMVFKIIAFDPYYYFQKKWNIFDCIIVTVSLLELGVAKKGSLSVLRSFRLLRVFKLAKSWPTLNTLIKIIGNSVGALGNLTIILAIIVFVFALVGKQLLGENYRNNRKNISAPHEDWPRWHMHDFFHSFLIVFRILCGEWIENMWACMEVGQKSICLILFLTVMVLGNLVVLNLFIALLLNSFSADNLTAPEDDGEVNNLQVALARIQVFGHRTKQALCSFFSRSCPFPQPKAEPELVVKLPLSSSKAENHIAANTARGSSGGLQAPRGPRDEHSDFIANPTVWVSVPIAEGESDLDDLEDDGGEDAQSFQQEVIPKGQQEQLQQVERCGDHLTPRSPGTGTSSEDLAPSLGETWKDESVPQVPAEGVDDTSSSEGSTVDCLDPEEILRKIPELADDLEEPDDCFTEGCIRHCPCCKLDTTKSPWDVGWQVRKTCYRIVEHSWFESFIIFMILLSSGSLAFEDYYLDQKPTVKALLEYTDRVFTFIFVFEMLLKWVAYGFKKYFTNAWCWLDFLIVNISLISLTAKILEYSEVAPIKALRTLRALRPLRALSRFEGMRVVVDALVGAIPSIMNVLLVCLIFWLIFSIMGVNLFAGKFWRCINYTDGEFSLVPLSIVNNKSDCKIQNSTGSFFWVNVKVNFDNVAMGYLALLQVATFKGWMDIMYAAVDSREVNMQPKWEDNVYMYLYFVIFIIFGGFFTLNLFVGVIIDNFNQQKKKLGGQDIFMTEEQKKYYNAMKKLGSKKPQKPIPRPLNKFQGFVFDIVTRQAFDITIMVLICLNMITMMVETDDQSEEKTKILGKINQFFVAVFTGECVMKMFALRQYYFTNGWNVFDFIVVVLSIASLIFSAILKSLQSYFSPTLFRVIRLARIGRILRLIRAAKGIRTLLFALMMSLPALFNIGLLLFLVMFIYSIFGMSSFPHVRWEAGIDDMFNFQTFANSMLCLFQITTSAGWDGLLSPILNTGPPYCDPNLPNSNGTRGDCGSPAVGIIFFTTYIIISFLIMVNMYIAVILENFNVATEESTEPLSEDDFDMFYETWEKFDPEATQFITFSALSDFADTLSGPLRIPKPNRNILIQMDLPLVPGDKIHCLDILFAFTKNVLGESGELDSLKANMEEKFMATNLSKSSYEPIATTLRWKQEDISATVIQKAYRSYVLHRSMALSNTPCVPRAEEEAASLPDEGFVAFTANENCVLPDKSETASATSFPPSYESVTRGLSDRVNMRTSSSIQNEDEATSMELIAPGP
# Sequence (Q07699 19-218 partner): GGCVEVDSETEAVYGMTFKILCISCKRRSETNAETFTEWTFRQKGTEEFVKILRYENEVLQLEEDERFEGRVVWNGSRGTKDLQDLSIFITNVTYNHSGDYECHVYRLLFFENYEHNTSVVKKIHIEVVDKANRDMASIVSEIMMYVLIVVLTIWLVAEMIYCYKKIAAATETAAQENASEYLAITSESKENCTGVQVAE
# ASSAY NAME: Nav1.8 sodium channels assay, QPatch 48 HTX electrophysiology in HEK293-Nav1.8 cells
# Assay type: cell-based
# TEST CONDITIONS: at least one set of experimental runs; read-out: average pIC50 value against Nav1.8 (converted)
METRIC NAME: IC50

Consider the worked cases shown below.
COMPOUND: Cc1cc(OC(F)(F)F)ccc1N1CN(c2ccc(=O)[nH]c2C)C(=O)c2cc(C(F)(F)F)cnc21
IC50: ≤ 100 nM
--
COMPOUND: Cc1cc(F)ccc1N1CN(c2ccc(=O)[nH]c2C)C(=O)c2cc(Cl)c(C#N)cc21
IC50: ≤ 100 nM
--
COMPOUND: Cc1[nH]c(=O)ccc1N1CN(c2ccc(F)cc2C(C)C)c2nc(C(F)(F)F)ccc2C1=O
IC50: ≤ 100 nM
--
COMPOUND: Cc1[nH]c(=O)ccc1N1CN([C@H]2CCCC[C@H]2C)c2cc(C(F)(F)F)ccc2C1=O
IC50: ≤ 100 nM
--
COMPOUND: Cc1cc(F)ccc1N1CN(c2n[nH]c(=O)cc2C)C(=O)c2ccc(C(F)(F)F)cc21
IC50: 794 to 7940 nM
--
COMPOUND: CC(=O)Nc1[nH]c(=O)ccc1N1CN(c2ccc(F)cc2C)c2ccc(C(F)(F)F)cc2C1=O
IC50: 794 to 7940 nM
--
COMPOUND: Cc1[nH]c(=O)ccc1N1CN(c2ccc(F)cc2C(C)C)c2ccc(F)cc2C1=O
IC50: ≤ 100 nM
--
COMPOUND: Cc1[nH]c(=O)ccc1N1CN(c2ccc(F)cc2C(C)C)c2cc(F)c(Cl)cc2C1=O
IC50: ≤ 100 nM

Would you mind telling me what IC50 value was observed for `Cc1cc(F)c(F)cc1N1CN(c2ccc(=O)[nH]c2C)C(=O)c2cc(C(F)(F)F)ccc21` ? 126 to 631 nM

Would you mind telling me what IC50 value was observed for Cc1[nH]c(=O)ccc1N1CN(c2ccc(F)cc2C(C)(C)C)c2cc(C(F)(F)F)ccc2C1=O (single isomer, unassigned) [Example 295] ? 794 to 7940 nM

Would you mind telling me what IC50 value was observed for `Cc1cc(F)ccc1N1CN(c2ccc(=O)[nH]c2)C(=O)c2ccc(C(F)(F)F)c(Cl)c21` ? 794 to 7940 nM

Would you mind telling me what IC50 value was observed for Cc1[nH]c(=O)ccc1N1CN([C@H]2CC[C@H](F)C2)c2cc(C(F)(F)F)ccc2C1=O (racemic) ? 794 to 7940 nM

Would you mind telling me what IC50 value was observed for `Cc1cc(O)ccc1N1CN(c2ccc(F)cc2C)c2ccc(C(F)(F)F)cc2C1=O` ? 794 to 7940 nM

Would you mind telling me what IC50 value was observed for `Cc1cc(F)ccc1N1CN(c2c[nH]c(=O)cn2)C(=O)c2ccc(C(F)(F)F)cc21` ? 794 to 7940 nM

Would you mind telling me what IC50 value was observed for `Cc1cc(C(F)(F)CO)ccc1N1CN(c2ccc(=O)[nH]c2C)C(=O)c2ccc(C(F)(F)F)cc21` ? 794 to 7940 nM

Would you mind telling me what IC50 value was observed for `Cc1cc(F)ccc1N1CN(c2cc[nH]c(=O)c2)C(=O)c2ccc(C(F)(F)F)cc21` ? 126 to 631 nM

Would you mind telling me what IC50 value was observed for `Cc1cnccc1N1CN(c2ccc(F)cc2C)c2cc(C(F)F)c(Cl)cc2C1=O` ? 126 to 631 nM

Would you mind telling me what IC50 value was observed for `Cc1cc(F)ccc1N1CN(c2ccc(=O)[nH]c2C)C(=O)c2cc(F)c(Cl)nc21` ? ≤ 100 nM

Would you mind telling me what IC50 value was observed for `Cc1c[n+]([O-])ccc1N1CN(c2ccc(F)cc2C)c2ccc(C(F)(F)F)cc2C1=O` ? 126 to 631 nM

Would you mind telling me what IC50 value was observed for `COc1cccc2c1C(=O)N(c1ccc(=O)[nH]c1C)CN2c1ccc(F)cc1C(C)C` ? 794 to 7940 nM

Would you mind telling me what IC50 value was observed for `Cc1cc(F)ccc1N1CN(c2ccc(=O)[nH]c2C)C(=O)c2cc(F)c(Cl)cc21` ? ≤ 100 nM

Would you mind telling me what IC50 value was observed for `Cc1cc(F)ccc1N1CN(c2ncc(=O)[nH]c2C)C(=O)c2ccc(C(F)(F)F)cc21` ? 126 to 631 nM

Would you mind telling me what IC50 value was observed for `Cc1[nH]c(=O)ccc1N1CN(c2ccc(F)cc2C(C)C)c2ncc(Cl)cc2C1=O` ? 126 to 631 nM

Would you mind telling me what IC50 value was observed for Cc1cc(F)ccc1N1CN(C2CCC(=O)NC2=O)C(=O)c2cc(C(F)(F)F)ccc21 (stereo not shown) ? 126 to 631 nM

Would you mind telling me what IC50 value was observed for `Cc1cc(N2CN(c3ccc(F)cc3C)c3ccc(C(F)(F)F)cc3C2=O)c[n+]([O-])c1` ? 794 to 7940 nM

Would you mind telling me what IC50 value was observed for `Cc1cc(F)ccc1N1CN(c2ccc(=O)[nH]c2C)C(=O)c2cc(F)c(C#N)cc21` ? ≤ 100 nM

Would you mind telling me what IC50 value was observed for `Cc1cc(F)ccc1N1CN(c2ccc(=O)[nH]c2C)C(=O)c2cc(O)c(C(F)(F)F)cc21` ? 794 to 7940 nM

Would you mind telling me what IC50 value was observed for `COc1cc(F)ccc1N1CN(c2ccc(=O)[nH]c2C)C(=O)c2cc(C(F)(F)F)ccc21` ? ≤ 100 nM
